All values here come from PubChem BioAssay AID504462.

Target: Cysteine protease ATG4B (Homo sapiens) (UniProt Q9Y4P1)
Sequence (Q9Y4P1 whole entry, looked up): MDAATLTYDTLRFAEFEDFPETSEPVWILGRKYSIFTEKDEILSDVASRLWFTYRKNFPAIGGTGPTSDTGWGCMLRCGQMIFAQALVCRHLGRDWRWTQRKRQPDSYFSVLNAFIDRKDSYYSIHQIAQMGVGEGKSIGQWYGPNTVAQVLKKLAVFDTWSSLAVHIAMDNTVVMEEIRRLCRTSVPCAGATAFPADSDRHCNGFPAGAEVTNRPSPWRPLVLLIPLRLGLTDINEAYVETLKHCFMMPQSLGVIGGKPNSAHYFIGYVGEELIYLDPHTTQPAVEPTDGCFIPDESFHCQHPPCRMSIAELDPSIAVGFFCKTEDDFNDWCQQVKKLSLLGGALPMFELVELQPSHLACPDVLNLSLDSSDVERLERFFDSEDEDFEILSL
Test: ATG4B protease inhibitors, primary screen, biochemical, fluorescence, uHTS (AID 504462)
Conditions: ATG4B cleavage of LC3-PLA2, NBD-HPC fluorescence, 1 h; at 8.33 µM; stronger effect = higher value
Screen size: about 340,000 compounds; about 1,700 (0.5%) were called active. What follows is part of a selection rich in actives, with near analogues and random picks from the rest.
Observation Type: inhibition (%)
Respond with the bare value in %.

Molecule: CSCCC(NS(=O)(=O)c1ccc2c(c1)oc(=O)n2C)C(=O)NCc1ccccc1 (stereo unspecified)
Observation Type: inhibition
Readout Number: -9.32

Q: Report inhibition for O=C(COc1ccc(S(=O)(=O)NCc2ccccc2)cc1)N1CCOCC1 please.
Result: 0.8

Q: Would you kindly share the measured inhibition for Cc1c(NC(=O)CCCOc2ccccc2)cccc1[N+](=O)[O-] ?
Result: -6.83

Q: Entry CC1CN(Cc2ccccc2)C(=S)NC1=O (stereo unspecified) has what inhibition?
Result: -11

Q: Recorded inhibition of Nc1c(N(CCCO)C(=O)C2CCCC2)c(=O)[nH]c(=O)n1Cc1ccccc1 , please.
Result: 2.96

Q: Quick check: inhibition of C#CCOCCOCCOCCNc1nc(N2CCN(C(=O)Cn3cc(CCO)nn3)CC2)nc(N2CCN(C(=O)Cn3cc(CCCN=C(N)N)nn3)CC2)n1 ?
Result: -2.83

Q: # lookup: inhibition of CCc1cccc(C)c1N1C(=O)CN(Cc2ccccc2)C1=S
Result: 88.4

---

Target: Cysteine protease ATG4B (Homo sapiens)
Experiment: ATG4B protease inhibitors, primary screen, biochemical, fluorescence, uHTS (AID 504462)
Details: ATG4B cleavage of LC3-PLA2, NBD-HPC fluorescence, 1 h; at 8.33 µM
Hit rate of the full screen: of about 340,000 compounds, about 1,700 (0.5%) were called active. Cut-off read from the data, not from the text of the source: active = inhibition above about 40%; inactive = the rest. Only a selection was taken, and actives are over-represented in it overall.
API: response.call in True for active, False for inactive

// below: answered compounds
Compound: O=C(O)C1C2C=CC(C2)C1C(=O)NCc1ccccc1 (stereo not given)
Tested On: Cysteine protease ATG4B (Homo sapiens)
Answer Label: False

Compound: COC(=O)[C@H](Cc1ccccc1)NC(=O)[C@@H]1C[C@H]1[C@@H](NC(=O)OCc1ccccc1)c1ccccc1
Tested On: Cysteine protease ATG4B (Homo sapiens)
Answer Label: False

Compound: O=C(NCc1ccccc1)[C@H]1C[C@@H]1[C@H](NP(=O)(c1ccccc1)c1ccccc1)c1ccccc1
Tested On: Cysteine protease ATG4B (Homo sapiens)
Answer Label: True

Compound: CCC(C)N(C(=O)COC(=O)C1C(C(=O)OC)=C(C)NC(C)=C1C(=O)OC)C1CCS(=O)(=O)C1 (stereo not given)
Tested On: Cysteine protease ATG4B (Homo sapiens)
Answer Label: False

Turning now to a further record.
Q: Please state the recorded outcome for this compound: Cc1ccccc1CSc1nnc(-c2ccccc2)c(=O)[nH]1
Result: False

---

Molecular target: Cysteine protease ATG4B (Homo sapiens) (UniProt Q9Y4P1)
Assay: ATG4B protease inhibitors, primary screen, biochemical, fluorescence, uHTS (AID 504462)
Conditions: ATG4B cleavage of LC3-PLA2, NBD-HPC fluorescence, 1 h; at 8.33 µM; stronger effect = higher value
Among all 340,000 compounds or so, about 1,700 (0.5%) were called active. For the sample, actives were picked, then their nearest neighbours and some compounds at random.
Consider the following compounds and their measured inhibition readings.
Respond numerically; units are % and should not be typed.

These recorded examples may help you get a feel for the data.
Compound: COCCCNC(=S)NC(=O)c1ccc([N+](=O)[O-])cc1
inhibition [%]: -7.22
//
Compound: O=C(CN1C(=O)C2C3C=CC(C3)C2C1=O)NCC1COc2ccccc2O1 (stereo not drawn)
inhibition [%]: 0.03
//
Compound: O=C(C1CC1)N1CCN=C1SCc1ccc(Cl)cc1
inhibition [%]: -5.2
//
Compound: NS(=O)(=O)c1ccc(NC(=S)Nc2ccc(Br)c(Cl)c2)cc1
inhibition [%]: 1.95
//
Compound: O=[N+]([O-])/C=C/c1ccc2c(ccn2Cc2ccccc2)c1
inhibition [%]: 5.14
//
Compound: O=C1c2ccccc2C(=O)N1CCCc1nc(-c2ccccc2)no1
inhibition [%]: 3.08
//
Compound: O=C(Nc1cccc2c1CCCC2)c1ccc(F)cc1
inhibition [%]: 9.34
//
Compound: CCOc1ccc(NC(=O)CSc2nc3c(c(=O)n2-c2ccccc2OC)SCC3)cc1
inhibition [%]: -6.73

Q: Give the measured inhibition of Cc1cc(C)nc(-n2ncc3c2CC(c2ccc(C(C)C)cc2)CC3=O)n1 (stereo not drawn) .
Result: -17.4

Q: What does the record list as inhibition for O=C1C(=O)N(CC2COc3ccccc3O2)c2ccccc21 (stereo not drawn) ?
Result: 72.1

Q: Returns the measured inhibition for the input compound. Input: COc1ccc(S(=O)(=O)Nc2cc(C)on2)cc1NC(C)=O
Result: -6.89

Q: // lookup inhibition for S=C(Nc1ccccc1)Nc1ccc2ccccc2c1
Result: -5.73

Q: What value of inhibition has been reported for the following compound? CC1CCN(C(=O)c2ccc(CSc3ccc(Cl)cc3)cc2)CC1
Result: 44

---

Molecular target: Cysteine protease ATG4B (Homo sapiens)
Experiment: ATG4B protease inhibitors, primary screen, biochemical, fluorescence, uHTS (AID 504462)
Conditions: ATG4B cleavage of LC3-PLA2, NBD-HPC fluorescence, 1 h; at 8.33 µM; stronger effect = higher value
Screen size: about 340,000 compounds; about 1,700 (0.5%) were called active. The full list was thinned out, with actives kept by preference.
Observation Type: inhibition (%)
Report the figure in % without appending any unit label.

Study these solved cases before continuing.
Compound: CCCN(CCC)CCCNC(=O)CNC(=O)c1nn(-c2ccc(OC)cc2)c(=O)c2ccccc12
Tested On: Cysteine protease ATG4B (Homo sapiens)
Observation Type: inhibition
Unit Of Measure: %
Readout Number: 7.71
--
Compound: CCN1CCCC1CNC(=O)Cn1cnc2ccc(S(=O)(=O)N3CCC(C)CC3)cc2c1=O (stereo not given)
Tested On: Cysteine protease ATG4B (Homo sapiens)
Observation Type: inhibition
Unit Of Measure: %
Readout Number: -2.67
--
Compound: O=C1Nc2cc(Cl)c(Cl)cc2N(O)N1c1ccccc1Cl
Tested On: Cysteine protease ATG4B (Homo sapiens)
Observation Type: inhibition
Unit Of Measure: %
Readout Number: 0.16
--
Compound: O=C(NCCc1ccco1)c1ccc(OCc2cn3ccccc3n2)cc1
Tested On: Cysteine protease ATG4B (Homo sapiens)
Observation Type: inhibition
Unit Of Measure: %
Readout Number: -8.13

Q: Lab request: please report inhibition under test system Cysteine protease ATG4B (Homo sapiens) for CS(=O)(=O)Nc1ccc(C(=O)N2CCCC2)cc1
Result: -2.74

Q: Missing value: inhibition, Cysteine protease ATG4B (Homo sapiens), entry Cc1cc(C)n(-c2nnc(C)n2NC(=O)c2cccc(Cl)c2)n1 . Fill in?
Result: -11.2

Q: Tell me reported inhibition for COc1ccc(C(=O)NC(C)Cn2nc(C)cc2C)cc1OC1CCN(C(C)=O)CC1 (stereo not given) , tested with Cysteine protease ATG4B (Homo sapiens).
Result: 3.85

Q: Fill in the recorded inhibition for this compound, with Cysteine protease ATG4B (Homo sapiens) as test system: COc1cc(C)c(S(=O)(=O)N2CCOCC2)c(C)c1C
Result: -9.43

Q: Cysteine protease ATG4B (Homo sapiens) / inhibition / O=C(Nc1ccccc1Cc1ccccc1)c1ccc2c(c1)SC1=NS(=O)(=O)CCN12 : value?
Result: -8.36

Q: Requested read-out inhibition, target or system Cysteine protease ATG4B (Homo sapiens), entry CC(C)CCNC(=O)Cn1c(=O)oc2cc(S(=O)(=O)N3CC(C)CC(C)C3)ccc21 (stereo not given)
Result: -3.27

---

Biological target: Cysteine protease ATG4B (Homo sapiens) (UniProt Q9Y4P1)
Assay: ATG4B protease inhibitors, primary screen, biochemical, fluorescence, uHTS (AID 504462)
Settings: ATG4B cleavage of LC3-PLA2, NBD-HPC fluorescence, 1 h; at 8.33 µM; stronger effect = higher value
Screen size: about 340,000 compounds; about 1,700 (0.5%) were called active. For the sample, actives were picked, then their nearest neighbours and some compounds at random.
Reported values of inhibition for individual entries

In the examples that follow, each entry is paired with its recorded inhibition.
Compound: Cc1ccc(NC(=O)CC2S/C(=N/N=C3\CCCc4ccccc43)NC2=O)cc1 (stereo unspecified)
Tested On: Cysteine protease ATG4B (Homo sapiens) (UniProt Q9Y4P1)
Result: 41.3% (active)

Compound: CCN=C1SC(CC(=O)Nc2ccc(C)cc2)C(=O)N1CC (stereo unspecified)
Tested On: Cysteine protease ATG4B (Homo sapiens) (UniProt Q9Y4P1)
Result: -0.27% (inactive)

Compound: CCCCn1c(N)c(N(CC)C(=O)c2ccccc2C(F)(F)F)c(=O)[nH]c1=O
Tested On: Cysteine protease ATG4B (Homo sapiens) (UniProt Q9Y4P1)
Result: 1.66% (inactive)

Compound: Cc1nn(Cc2ccccc2Cl)c(C)c1NC(=O)Cn1nc([N+](=O)[O-])c(Cl)c1C
Tested On: Cysteine protease ATG4B (Homo sapiens) (UniProt Q9Y4P1)
Result: -0.32% (inactive)

Compound: Cc1ccc(Sc2cc(C(=O)c3ccccc3C(=O)O)ccc2[N+](=O)[O-])cc1
Tested On: Cysteine protease ATG4B (Homo sapiens) (UniProt Q9Y4P1)
Result: -10.7% (inactive)

// moving on: another record for inhibition
Q: inhibition for O=C(N/N=C\c1ccc(Br)cc1)c1ccc(Cn2cccn2)o1 ?
Result: -3.61% (inactive)
